Sourced from patent US9475816B2

The entries below come with measured IC50 values attached.
Biological target: human MetAP2 enzyme (Homo sapiens)
Sequence (P50579 whole entry): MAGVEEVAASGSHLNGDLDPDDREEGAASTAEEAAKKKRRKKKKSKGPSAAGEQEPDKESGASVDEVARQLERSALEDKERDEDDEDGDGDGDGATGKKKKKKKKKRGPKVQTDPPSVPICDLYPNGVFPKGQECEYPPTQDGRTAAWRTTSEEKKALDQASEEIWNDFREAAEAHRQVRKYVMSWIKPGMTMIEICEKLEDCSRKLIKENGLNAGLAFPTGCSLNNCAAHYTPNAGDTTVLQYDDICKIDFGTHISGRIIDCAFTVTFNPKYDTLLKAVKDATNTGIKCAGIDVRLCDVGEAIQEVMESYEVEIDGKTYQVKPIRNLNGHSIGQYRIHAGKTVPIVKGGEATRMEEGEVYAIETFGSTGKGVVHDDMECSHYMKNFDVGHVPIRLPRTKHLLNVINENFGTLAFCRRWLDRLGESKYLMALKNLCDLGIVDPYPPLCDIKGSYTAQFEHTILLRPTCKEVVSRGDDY
Test: MetAP2 enzyme assay, MetAP2 enzyme complexed with manganese ions
Conditions: MetAP2 Mn pIC50, 10 μM MnCl2; -log(IC50), IC50 molar
All answers are understood in nM, so give the number only.

A selection of reference data follows.
The compound Cc1nc2c(cc1-n1c3ccc(F)cc3c3[nH]ncc31)ncn2CCS(C)(=O)=O showed IC50 equal to 3.98

The compound Cc1nc(C(=O)N(C)CCO)ccc1-n1c2ccc(F)cc2c2[nH]ncc21 showed IC50 equal to 15.8

The compound Cc1nc(N2CC[C@@H](F)C2)ncc1-n1c2ccc(F)cc2c2[nH]ncc21 showed IC50 equal to 63.1

The compound Cc1nc(NCCO)ncc1-n1c2ccc(F)cc2c2[nH]ncc21 showed IC50 equal to 7.94

The compound Fc1ccc2c(c1)c1[nH]ncc1n2-c1cnn2c1CNCC2 showed IC50 equal to 12.6

***
The compound Cc1nc(N2CC[C@H](S(C)(=O)=O)C2)ncc1-n1c2ccc(F)cc2c2[nH]ncc21 showed IC50 equal to 6.31

The compound O=C(C1CC1)n1c2ccc(F)cc2c2[nH]ncc21 showed IC50 equal to 316

The compound Cc1nc(N2CC[C@H](C(N)=O)C2)ncc1-n1c2ccc(F)cc2c2[nH]ncc21 showed IC50 equal to 7.94

The compound CCN1CCn2ncc(-n3c4ccc(F)cc4c4[nH]ncc43)c2C1 showed IC50 equal to 20

====

Target: human MetAP2 enzyme (Homo sapiens)
Test: MetAP2 enzyme assay, MetAP2 enzyme complexed with cobalt ions
Settings: MetAP2 Co pIC50, 10 μM CoCl2; -log(IC50), IC50 molar
The entries below come with measured IC50 values attached.
All answers are understood in nM, so give the number only.

Form: item Fc1ccc2c(c1)c1[nH]ncc1n2Cc1ccccc1 ; test system human MetAP2 enzyme (Homo sapiens); IC50: 39.8

***
Form: item Cc1nc(NC[C@H](C)O)ncc1-n1c2ccc(F)cc2c2[nH]ncc21 ; test system human MetAP2 enzyme (Homo sapiens); IC50: 10

Form: item Cc1nc(N2CC[C@@H](O)C2)ccc1-n1c2ccc(F)cc2c2[nH]ncc21 ; test system human MetAP2 enzyme (Homo sapiens); IC50: 6.31

Form: item O=c1[nH]c(N2CC[C@@H](O)C2)ncc1-n1c2ccc(F)cc2c2[nH]ncc21 ; test system human MetAP2 enzyme (Homo sapiens); IC50: 20

Form: item Cc1nc(C(=O)NC2(CO)CC2)ccc1-n1c2ccc(F)cc2c2[nH]ncc21 ; test system human MetAP2 enzyme (Homo sapiens); IC50: 12.6

Form: item Cc1nc(N2CCO[C@H](CO)C2)ncc1-n1c2ccc(F)cc2c2[nH]ncc21 ; test system human MetAP2 enzyme (Homo sapiens); IC50: 6.31

====

Biological target: human MetAP2 enzyme (Homo sapiens)
Assay: MetAP2 enzyme assay, MetAP2 enzyme complexed with manganese ions
Conditions: MetAP2 Mn pIC50, 10 μM MnCl2; -log(IC50), IC50 molar
The entries below come with measured pIC50 values attached.
On this scale, pIC50 is minus log10 of a concentration expressed in M (mol/L).

A selection of reference data follows.
The compound CC(c1ccccc1)n1c2ccc(F)cc2c2[nH]ncc21 (centres unmarked) showed pIC50 equal to 7.30

The compound Cc1nc2c(cc1-n1c3ccc(F)cc3c3[nH]ncc31)ncn2C[C@@H](O)CO showed pIC50 equal to 8.30

***
The compound Cc1c(-n2c3ccc(F)cc3c3[nH]ncc32)cnc(N)c1C showed pIC50 equal to 8.50
